# target.desc: Kv7.2 (Homo sapiens, UniProt O43526)
# assay.overview: Activation of Kv7.2 (in vitro assay, concentration response curve)
# condition.label: activation of Kv7.2
Please go through the items and note down their EC50.

Example entries begin here.
CC(Oc1cc(CNC(=O)N[C@H]2C[C@H](C(F)(F)F)C2)ccn1)C(F)(F)F (some centres unmarked) [Example 221] :: 70 nM
O=C(NCc1ccnc(OC(F)F)c1)N[C@H]1C[C@H](C(F)F)C1 [Example 136] :: 280 nM
O=C(NCc1ccnc(OC(F)F)c1)NC1COc2ccccc2C1 (centres unmarked) [Example 192] :: 240 nM

Batch: EC50 for all items listed.
1. O=C(NCc1ccnc(OC(F)F)c1)N[C@@H]1C[C@H]2C[C@@H]1C(F)(F)C2 (racemic) [Example 236]
2. O=C(NCc1ccnc(-n2cccn2)c1)NC1CCCC1 [Example 2]

a:
1: 460 nM; 2: 4400 nM

* * *

Please go through the items and note down their EC50.
# target.desc: Kv7.2 (Homo sapiens)
# assay.overview: Activation of Kv7.2 (in vitro assay, concentration response curve)
# condition.label: activation of Kv7.2
# Description: The term “EC50” in this application is defined as: the agonistic effect of a compound can be determined by testing the compound in an in vitro assay as described herein, whereby the effect of the compound is measured across a range of compound concentrations. The resulting data is plotted as a concentration response curve, which typically follows a sigmoidal function, whereby the concentration of the compound is plotted on the x axis and the response (agonistic effect) is plotted on the y axis. […]
Give bare numbers, in nM.

Example entries begin here.
O=C(NCc1ccnc(OC(F)F)c1)N[C@@H](C1CC1)C(F)(F)F :: 1110
CC(Oc1cc(CNC(=O)NC23CC(F)(C2)C3)ccn1)C(F)(F)F (stereo not drawn) :: 210
O=C(NCc1ccnc(OC(F)F)c1)NC1COC(C2CC2)C1 (stereo not drawn) :: 3330
O=C(NCc1ccnc(OC(F)F)c1)N[C@H]1C[C@H](C(F)(F)F)C1 :: 70
O=C(NCc1ccnc(OC(F)F)c1)NC1(C2CC(F)(F)C2)CC1 :: 360
O=C(NCc1ccnc(OCF)c1)Nc1ccc(F)c(F)c1 :: 260

Batch: EC50 for all items listed.
1. O=C(NCc1ccnc(OC2CC(F)(F)C2)c1)NC12CC(F)(C1)C2
2. O=C(NCc1ccnc(OC(F)F)c1)N[C@@H]1CCC[C@H](C(F)(F)F)C1 [Example 250]
3. O=C(NCc1ccnc(CC(F)(F)F)c1)N[C@H]1C[C@H](C(F)(F)F)C1

a:
1: 540; 2: 120; 3: 340

* * *

Please go through the items and note down their Emax.
# target.desc: Kv7.2 (Homo sapiens, UniProt O43526)
# Construct: expressed in transfected cells
# assay.overview: Activation of Kv7.2 (in vitro assay, concentration response curve)
# Format: cell-based
# condition.label: Kv7.2 activation max %
Answers are plain numbers, in %.

Example entries begin here.
CC(F)COc1cc(CNC(=O)NC23CC(F)(C2)C3)ccn1 (stereo not shown) :: 61
COC12CC(NC(=O)NCc3ccnc(OC(F)F)c3)(C1)C2 :: 48
O=C(NCc1ccnc(OC(F)F)c1)N[C@H]1C[C@H](C(F)F)C1 :: 50
CC(F)(F)COc1cc(CNC(=O)NC23CCC(F)(CC2)CC3)ccn1 :: 61
C[C@]1(O)CCCC[C@@H]1NC(=O)NCc1ccnc(OC(F)F)c1 (racemic) :: 64
O=C(NCc1ccnc(OCC(F)(F)F)c1)NC(C(F)(F)F)C(F)(F)F :: 87

Batch: Emax for all items listed.
1. O=C(NCc1ccnc(OC(F)F)c1)NC1CC(C2CC2)C1 (stereo not shown)
2. CC(F)(F)COc1cc(CNC(=O)N[C@H]2C[C@H](C(F)(F)F)C2)ccn1
3. O=C(Nc1cccc(Cl)c1)N[C@@H](CO)c1ccnc(OCC(F)(F)F)c1
4. COCC(Oc1cc(CNC(=O)N[C@H]2C[C@H](C(F)(F)F)C2)ccn1)C(F)(F)F (stereo partly shown)

a:
1. 62
2. 62
3. 58
4. 59

* * *

# target.desc: Kv7.2 (Homo sapiens, UniProt O43526)
# assay.overview: Activation of Kv7.2 (in vitro assay, concentration response curve)
# condition.label: activation of Kv7.2
# Procedure: The term “EC50” in this application is defined as: the agonistic effect of a compound can be determined by testing the compound in an in vitro assay as described herein, whereby the effect of the compound is measured across a range of compound concentrations. The resulting data is plotted as a concentration response curve, which typically follows a sigmoidal function, whereby the concentration of the compound is plotted on the x axis and the response (agonistic effect) is plotted on the y axis. […]
Please go through the items and note down their EC50.
Give bare numbers, in nM.

Example entries begin here.
O=C(NCc1ccnc(OC(F)F)c1)N[C@@H](CC(F)(F)F)C(F)(F)F :: 890
O=C(NCc1ccnc(OC(F)F)c1)N[C@@H](C1CCC1)C(F)(F)F :: 750
C[C@H](O)C(NC(=O)N[C@H]1C[C@H](C(F)(F)F)C1)c1ccnc(OC(F)F)c1 (stereo partly shown) :: 740
O=C(NCCC1=CCCCC1)NCc1ccnc(-n2cccn2)c1 :: 1390
CC(C)(C)CC1(NC(=O)NCc2ccnc(OC(F)F)c2)CC1 :: 480
O=C(NCc1ccnc(OC(F)F)c1)N[C@@H]1C[C@H]2CC[C@@H]1C2 (racemic) :: 90
CC(C)(F)CNC(=O)NCc1ccnc(OC(F)F)c1 :: 1950
O=C(NCc1ccnc(OCC(F)(F)F)c1)NC1CC(F)(F)C1 :: 380
O=C(NCc1ccnc(OC(F)F)c1)N[C@H]1CC[C@H](OC(F)F)CC1 :: 300
O=C(NCc1cc(OCC(F)(F)F)ncn1)N[C@H]1C[C@H](C(F)(F)F)C1 :: 170

Batch: EC50 for all items listed.
1. O=C(NCc1ccnc(-n2cccn2)c1)Nc1cccc(Cl)c1
2. O=C(NCc1ccnc(OC(F)F)c1)NC1C[C@H]2C[C@@H]1CC2(F)F (mixture of isomers)
3. CC(CNC(=O)NCc1ccnc(OC(F)F)c1)OC(F)F (stereo not shown)
4. O=C(NCc1ccnc(OC(F)F)c1)N[C@H]1CC[C@H](C(F)(F)F)C1 (single isomer, unassigned)
5. O=C(NCc1ccnc(OC(F)F)c1)N[C@@H]1CC[C@@H]1F (racemic)
6. O=C(NCc1ccnc(OC(F)F)c1)NCC1(F)CCC1
7. O=C(NCc1ccnc(OC(F)F)c1)NCC(C(F)(F)F)C(F)(F)F

a:
[430, 250, 1880, 230, 4160, 640, 720]

* * *

# target.desc: UniProtKB O43526
# assay.overview: Activation of Kv7.2 (in vitro assay, concentration response curve)
# condition.label: activation of Kv7.2
# Experimental: The term “EC50” in this application is defined as: the agonistic effect of a compound can be determined by testing the compound in an in vitro assay as described herein, whereby the effect of the compound is measured across a range of compound concentrations. The resulting data is plotted as a concentration response curve, which typically follows a sigmoidal function, whereby the concentration of the compound is plotted on the x axis and the response (agonistic effect) is plotted on the y axis. […]
quantity.measured: EC50 (nM)
Give bare numbers, in nM.

O=C(NCc1ccnc(OC(F)F)c1)NCC1(F)CCCC1 [Example 227] :: 410
O=C(NCc1ccnc(OC(F)F)c1)NC1C2CCC1CC(F)(F)C2 (racemic) [Example 197] :: 500

Batch: EC50 for all items listed.
1. CC1(C)CCC(NC(=O)NCc2ccnc(OC3COC3)c2)CC1 [Example 18]
2. COc1cc(CNC(=O)N[C@H]2C[C@H](C(F)(F)F)C2)ccn1 [Example 128]
3. O=C(NCc1ccnc(OC(F)F)c1)NC1(CC(F)(F)F)CC1 [Example 110]
4. CC(NC(=O)NCc1ccnc(OC(F)F)c1)C1CCC1 (stereo not drawn) [Example 17]
5. O=C(NCc1ccnc(OC(F)F)c1)Nc1cncc(Cl)c1 [Example 161]

a:
1: 270; 2: 5360; 3: 1230; 4: 510; 5: 1050

* * *

# target.desc: Kv7.2 (Homo sapiens, UniProt O43526)
# Construct: expressed in transfected cells
# assay.overview: Activation of Kv7.2 (in vitro assay, concentration response curve)
# Type: cell-based
# condition.label: Kv7.2 activation max %
Please go through the items and note down their Emax.
Numbers only, in %.

Batch: Emax for all items listed.
1. O=C(NC(CO)c1ccnc(OCC(F)(F)F)c1)NC12CC(F)(C1)C2 (stereo not drawn)
2. CC(F)COc1cc(CNC(=O)NC23CCC(F)(CC2)CC3)ccn1 (stereo not drawn)
3. O=C(NCc1ccnc(OC(F)F)c1)N[C@@H]1CC[C@@H]1C(F)(F)F (racemic)

a:
1: 68; 2: 43; 3: 78

From: patent US20250074901A1
